Just for reference, patent US20230365662A1 is where these values come from.

- Assayed System: HRgpA-6H (Porphyromonas gingivalis) (UniProt P28784)
- Test Name: ELISA, FASEBA Fab on coated HRgpA-6H
Metric: OD450nm
Output: the number by itself.

Indicate the recorded OD450nm value for this binder: KB001 mouse Fab VL S30W (Fab, V domains shown) VH: EVQLKQSGPGLVAPSQSLSITCTVSGFSLSIYSVHWVRQPPGKGLEWLGMIWGGGSSDYNSALKSRLSISKDNSKSQVFLKMNSLQTDDTAMYYCARNGNFYAMDYWGQGTSVTVSS VL: QIVLTQSPAIMSASLGERVTMTCTASSSVWSSFLHWYQQKPGSSPQLWIYSTSNLASGVPARFSGSGSGTSYSLTISSMEAEDAATYYCHQYHHSPYIYTFGGGTKLEIK 0.823

Indicate the recorded OD450nm value for this binder: KB001 mouse Fab VL S32Q (Fab, V domains shown) VH: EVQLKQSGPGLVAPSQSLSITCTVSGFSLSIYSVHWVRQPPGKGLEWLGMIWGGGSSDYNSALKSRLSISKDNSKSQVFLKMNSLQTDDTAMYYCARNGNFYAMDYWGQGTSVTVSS VL: QIVLTQSPAIMSASLGERVTMTCTASSSVSSQFLHWYQQKPGSSPQLWIYSTSNLASGVPARFSGSGSGTSYSLTISSMEAEDAATYYCHQYHHSPYIYTFGGGTKLEIK 0.716

Indicate the recorded OD450nm value for this binder: KB001 mouse Fab VL L55V (Fab, V domains shown) VH: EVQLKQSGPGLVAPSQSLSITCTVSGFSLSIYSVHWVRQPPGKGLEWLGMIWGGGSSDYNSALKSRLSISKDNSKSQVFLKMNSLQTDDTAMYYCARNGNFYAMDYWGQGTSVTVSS VL: QIVLTQSPAIMSASLGERVTMTCTASSSVSSSFLHWYQQKPGSSPQLWIYSTSNVASGVPARFSGSGSGTSYSLTISSMEAEDAATYYCHQYHHSPYIYTFGGGTKLEIK 0.706

Indicate the recorded OD450nm value for this binder: KB001 mouse Fab VL S57T (Fab, V domains shown) VH: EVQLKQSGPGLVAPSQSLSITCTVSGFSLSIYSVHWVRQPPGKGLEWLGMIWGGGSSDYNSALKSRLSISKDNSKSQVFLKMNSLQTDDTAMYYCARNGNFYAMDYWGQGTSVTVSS VL: QIVLTQSPAIMSASLGERVTMTCTASSSVSSSFLHWYQQKPGSSPQLWIYSTSNLATGVPARFSGSGSGTSYSLTISSMEAEDAATYYCHQYHHSPYIYTFGGGTKLEIK 0.843

Indicate the recorded OD450nm value for this binder: KB001 mouse Fab VL T24K/R18S (Fab, V domains shown) VH: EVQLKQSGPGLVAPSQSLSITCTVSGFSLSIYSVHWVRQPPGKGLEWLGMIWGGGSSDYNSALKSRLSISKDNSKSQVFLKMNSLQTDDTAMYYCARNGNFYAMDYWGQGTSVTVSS VL: QIVLTQSPAIMSASLGESVTMTCKASSSVSSSFLHWYQQKPGSSPQLWIYSTSNLASGVPARFSGSGSGTSYSLTISSMEAEDAATYYCHQYHHSPYIYTFGGGTKLEIK 0.761
